System tested: HCV NS5B RdRp genotype 1b (Hepatitis C virus genotype 1b)
Construct: The protein was expressed with an 18 amino acid C-terminal truncation to enhance the solubility; made in house; host or cells: E. coli BL21(DE3), pET21a vector
Sequence (Q9WMX2 2420-2992): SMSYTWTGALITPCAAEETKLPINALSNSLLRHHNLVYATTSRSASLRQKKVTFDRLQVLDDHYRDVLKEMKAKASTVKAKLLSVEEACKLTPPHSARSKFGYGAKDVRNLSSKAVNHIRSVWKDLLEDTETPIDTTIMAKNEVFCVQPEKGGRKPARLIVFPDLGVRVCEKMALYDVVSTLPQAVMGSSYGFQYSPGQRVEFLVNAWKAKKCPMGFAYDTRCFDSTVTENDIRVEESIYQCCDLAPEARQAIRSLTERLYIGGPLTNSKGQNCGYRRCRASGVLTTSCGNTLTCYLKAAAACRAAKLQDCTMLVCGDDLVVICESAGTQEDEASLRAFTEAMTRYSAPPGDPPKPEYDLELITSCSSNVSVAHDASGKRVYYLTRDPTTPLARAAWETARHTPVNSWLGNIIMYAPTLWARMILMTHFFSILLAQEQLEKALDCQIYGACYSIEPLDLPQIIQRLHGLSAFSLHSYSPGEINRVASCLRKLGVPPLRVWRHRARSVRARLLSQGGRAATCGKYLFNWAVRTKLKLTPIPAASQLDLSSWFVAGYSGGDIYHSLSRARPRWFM
Method notes: Standard HCV NS5B RdRp enzyme assay
Type: biochemical
Experimental conditions: Table 1a; HCV NS5B RdRp genotype 1b; read-out: IC50
pIC50: −log10 of the molar value.
Hi there, I'd appreciate the recorded pIC50 for every entry that follows.

Take a look at these entries with their results.
CNC(=O)c1c(-c2ccc(F)cc2)oc2ccc(-c3ccc(Cl)c(C(=O)NC(C)(C)c4ccccc4)c3)cc12 : > 6.60
CNC(=O)c1c(-c2ccc(F)cc2)oc2ccc(-c3cccc(C(=O)NC4CCCCC4)c3)cc12 : > 6.60
C#CC(C)(C)NC(=O)c1cccc(-c2ccc3oc(-c4ccc(F)cc4)c(C(=O)NC)c3c2)c1 : > 6.60
CNC(=O)c1c(-c2ccc(F)cc2)oc2ccc(-c3cccc(C(=O)NCCN(C)C)c3)cc12 : 5.00 to 6.00

Batch of 4 compounds: report pIC50 for each.
1. CNC(=O)c1c(-c2ccc(F)cc2)oc2ccc(-c3ccc(C(=O)N(C)Cc4cccnc4)cc3)cc12 [drawing 286]
2. CCN(CC)C(=O)c1ccc(-c2ccc3oc(-c4ccc(F)cc4)c(C(=O)NC)c3c2)cc1
3. CNC(=O)c1c(-c2ccc(F)cc2)oc2ccc(-c3cccc(C(=O)N[C@@H](CO)C(C)C)c3)cc12 [drawing 235]
4. CN1CN(C)c2c(-c3cccc(C(N)=O)c3)ccc3oc(-c4ccc(F)cc4)c(c23)C1=O [drawing 319]

*A*
1: 5.00 to 6.00; 2: 5.00 to 6.00; 3: 6.00 to 6.60; 4: < 5.00
